Data credit: patent US20120035161A1

# assay.target: Serotonin (5-Hydroxytryptamine) 5-HT1A (Homo sapiens)
# Construct: expressed in transfected cells; host or cells: CHO cells
# Sequence (P08908 whole entry): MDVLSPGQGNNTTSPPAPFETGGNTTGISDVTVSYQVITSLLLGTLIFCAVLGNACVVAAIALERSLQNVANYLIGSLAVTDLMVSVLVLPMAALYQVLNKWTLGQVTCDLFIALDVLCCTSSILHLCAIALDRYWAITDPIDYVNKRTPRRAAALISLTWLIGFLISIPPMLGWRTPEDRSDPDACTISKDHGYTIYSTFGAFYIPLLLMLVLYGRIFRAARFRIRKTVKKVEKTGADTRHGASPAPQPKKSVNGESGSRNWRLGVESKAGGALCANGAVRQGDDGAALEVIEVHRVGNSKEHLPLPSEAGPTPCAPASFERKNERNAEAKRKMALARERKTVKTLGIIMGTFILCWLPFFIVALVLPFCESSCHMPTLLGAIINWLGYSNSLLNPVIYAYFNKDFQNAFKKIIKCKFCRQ
# assay: Radioligand binding, 5-HT1A ([3H] 8-OH-DPAT)
# test.settings: 0.1 μM
# Protocol: The methods employed in this study have been adapted from the scientific literature to maximize reliability and reproducibility. Reference standards were run as an integral part of each assay to ensure the validity of the results obtained. Assays were performed under conditions as described below. Where presented, IC50 values were determined by a non-linear, least squares regression analysis using the Data Analysis Toolbox (MDL Information Systems, San Leandro, Calif., USA). […]
Listed below: inhibition at 0.1 µM values for each entry.
measure: inhibition at 0.1 µM (%)

FC(F)(F)c1ccc2c(c1)N(CCCN1CCNCC1)c1ccccc1S2 ... 1
NCCCN1CCC(CCCN2c3ccccc3Sc3ccc(C(F)(F)F)cc32)CC1 ... -8
CNCC(=O)NCCN1CCC(CCCN2c3ccccc3Sc3ccc(C(F)(F)F)cc32)CC1 ... 18
FC(F)(F)c1ccc2c(c1)N(CCCC1CCNCC1)c1ccccc1S2 ... 2
CN(C)S(=O)(=O)c1ccc2c(c1)N(CCCN1CCN(CCN)CC1)c1ccccc1S2 ... 5
NCC(=O)NCCN1CCN(CCCN2c3ccccc3Sc3ccc(C(F)(F)F)cc32)CC1 ... 14

====

# assay: Phospholipidosis assay (LipidTox)
# Format: cell-based
# test.settings: human
Listed below: cytotoxicity at 48 h, 3 µM values for each entry.
measure: cytotoxicity at 48 h, 3 µM (%)

O=CNCC(=O)NCCN1CCN(CCCN2c3ccccc3Sc3ccc(C(F)(F)F)cc32)CC1 [Compound 37b] ... 17
NCC(=O)NCCN1CCN(CCCN2c3ccccc3Sc3ccc(C(F)(F)F)cc32)CC1 ... 68
CN[C@H]1CC[C@@H](c2ccc(Cl)c(Cl)c2)c2ccccc21 [Sertaline, sertraline, reference compound] ... 15

====

# assay: Phospholipidosis assay (LipidTox)
# Format: cell-based
# test.settings: human
measure: fold induction at 48 h, 25 µM

Cc1cccc(CN2CCN(C(c3ccccc3)c3ccc(Cl)cc3)CC2)c1 (stereo not shown) [Meclizine, meclizine, reference compound] ... 13

====

# Test system: Serotonin (5-Hydroxytryptamine) 5-HT1, Non-Selective
# assay: Assay 271000 radioligand binding, 5-HT1 non-selective
# Parameters: species or system Wistar Rat
# test.settings: 0.1 μM
Listed below: % INHIBITION values for each entry.
measure: % INHIBITION (%)

FC(F)(F)c1ccc2c(c1)N(CCCC1CCNCC1)c1ccccc1S2 [ICI-824] ... −14
NCC(=O)NCCN1CCN(CCCN2c3ccccc3Sc3ccc(C(F)(F)F)cc32)CC1 [ICI-735] ... 16
NCCN1CCC(CCN2c3ccccc3Sc3ccc(C(F)(F)F)cc32)CC1 [ICI-1008] ... −20
NCC(=O)NCCN1CCN(CCCCN2c3ccccc3Sc3ccc(C(F)(F)F)cc32)CC1 [ICI-954] ... −3
NCCCN1CCC(CCCN2c3ccccc3Sc3ccc(C(F)(F)F)cc32)CC1 [ICI-847] ... −11
